Data provenance: patent US10696615B2

System: UACC-62
Procedure summary: NCI in vitro cancer screen, Melanoma
Assay type: cell-based, human
Test settings: Homo sapiens, UACC-62
Labelling: GI50 reported below 3 µM becomes 1.0; at or above becomes 0.0.

Say whether its GI50 is strictly beneath 3 µM. Entry: COc1cc(/C=C/c2cc(O)cc(OCC=C(C)C)c2)ccc1O [USYDS2]
0.0

Say whether its GI50 is strictly beneath 3 µM. Entry: COc1cc(/C=C/c2cc(O)cc(OC)c2CC=C(C)C)ccc1O [USYDS1]
1.0

Say whether its GI50 is strictly beneath 3 µM. Entry: COc1cc(/C=C/c2cc(O)c(CC=C(C)C)c(O)c2)ccc1O [USYDS13]
0.0

Say whether its GI50 is strictly beneath 3 µM. Entry: CC(C)=CCc1c(O)cc(/C=C/c2ccc(O)cc2)c(CC=C(C)C)c1O [USYDS6]
0.0

Say whether its GI50 is strictly beneath 3 µM. Entry: CC(C)=CCOc1cc(O)cc(/C=C/c2ccc(O)c(O)c2)c1 [USYDS4]
0.0

Say whether its GI50 is strictly beneath 3 µM. Entry: CC(C)=CCc1c(O)cc(/C=C/c2ccc(O)c(O)c2)c(CC=C(C)C)c1O [USYDS7]
1.0

Say whether its GI50 is strictly beneath 3 µM. Entry: COc1cc(O)cc(/C=C/c2ccc(O)c(O)c2)c1CC=C(C)C [USYDS9]
0.0

====

Please go through the items and note down their TGI.
System: HOP-62
Procedure summary: NCI in vitro cancer screen, Non-Small Cell Lung Cancer
Type: cell-based, human
Test settings: HOP-62
Dear colleague, please return just the value in µM, with no unit written.

Fill in the blank: the reported TGI of `CC(C)=CCc1c(O)cc(/C=C/c2ccc(O)cc2)c(CC=C(C)C)c1O` is ____.
17.5

Fill in the blank: the reported TGI of `CC(C)=CCc1c(O)cc(/C=C/c2ccc(O)c(O)c2)c(CC=C(C)C)c1O` is ____.
15.0

Fill in the blank: the reported TGI of `COc1cc(/C=C/c2cc(O)c(CC=C(C)C)c(O)c2)ccc1O` is ____.
20.4

Fill in the blank: the reported TGI of `COc1cc(/C=C/c2cc(O)cc(OCC=C(C)C)c2)ccc1O` is ____.
18.5

Fill in the blank: the reported TGI of `COc1cc(/C=C/c2cc(O)cc(OC)c2CC=C(C)C)ccc1O` is ____.
16.0

Fill in the blank: the reported TGI of `CC(C)=CCOc1cc(O)cc(/C=C/c2ccc(O)c(O)c2)c1` is ____.
26.3

====

Test system: RXF-393
Procedure summary: NCI in vitro cancer screen, Renal Cancer
Type: cell-based, human
Test settings: Homo sapiens; RXF-393
Attribute measured: GI50 (nM)
Dear colleague, please return just the value in nM, with no unit written.

Fill in the blank: the reported GI50 of COc1cc(/C=C/c2cc(O)cc(OCC=C(C)C)c2)ccc1O [USYDS2] is ____.
1350

Fill in the blank: the reported GI50 of CC(C)=CCc1c(O)cc(/C=C/c2ccc(O)cc2)c(CC=C(C)C)c1O [USYDS6] is ____.
2150

Fill in the blank: the reported GI50 of CC(C)=CCOc1cc(O)cc(/C=C/c2ccc(O)c(O)c2)c1 [USYDS4] is ____.
2170

Fill in the blank: the reported GI50 of CC(C)=CCc1c(O)cc(/C=C/c2ccc(O)c(O)c2)c(CC=C(C)C)c1O [USYDS7] is ____.
1530

Fill in the blank: the reported GI50 of COc1cc(/C=C/c2cc(O)cc(OC)c2CC=C(C)C)ccc1O [USYDS1] is ____.
30

Fill in the blank: the reported GI50 of COc1cc(/C=C/c2cc(O)c(CC=C(C)C)c(O)c2)ccc1O [USYDS13] is ____.
5480

Fill in the blank: the reported GI50 of COc1cc(O)cc(/C=C/c2ccc(O)c(O)c2)c1CC=C(C)C [USYDS9] is ____.
230
